Tested on: Vero E6
test_details: cell viability relative to DMSO; higher = less toxic
details: 72 h; 10 nM
As shown below, each of these compounds has a reported cell viability value.
// note: answer is a bare numeric in %

[
  {
    "compound": "COC(=O)c1cc(OC)c2c(c1-c1c(CO)cc(OC)c3c1OCO3)OCO2",
    "readout_kind": "cell viability",
    "reported": 105
  },
  {
    "compound": "COc1cc(Nc2ncc3c(n2)-c2ccc(Cl)cc2C(c2c(F)cccc2OC)=NC3)ccc1C(=O)O",
    "readout_kind": "cell viability",
    "reported": 103
  },
  {
    "compound": "Oc1ccc2c3c1O[C@H]1c4[nH]c5c(c4C[C@@]4(O)[C@@H](C2)N(CC2CC2)CC[C@]314)C[C@@]1(O)[C@H]2Cc3ccc(O)c4c3[C@@]1(CCN2CC1CC1)[C@H]5O4",
    "readout_kind": "cell viability",
    "reported": 98.3
  }
]

Let us move to another entry and its cell viability.
## Input Any idea what its cell viability is? The compound is CC(CN(C)C)CN1c2ccccc2CCc2ccccc21 (stereo not given)
## Output 101

* * *

Tested on: U2OS
test_details: cell viability relative to DMSO; higher = less toxic
details: 72 h; 10 nM
readout_kind: cell viability (%)
// note: answer is a bare numeric in %

Take a look at these entries with their results.
[
  {
    "compound": "C=C[C@]1(C)C[C@@H](OC(=O)CSC(C)(C)CNC(=O)[C@H](N)C(C)C)[C@]2(C)[C@H](C)CC[C@]3(CCC(=O)[C@H]32)[C@@H](C)[C@@H]1O [valnemulin]",
    "cell viability / %": 99.4
  },
  {
    "compound": "COC[C@H]1OC(=O)c2coc3c2[C@@]1(C)C1=C(C3=O)[C@@H]2CCC(=O)[C@@]2(C)C[C@H]1OC(C)=O [wortmannin]",
    "cell viability / %": 99.3
  },
  {
    "compound": "COC(=O)c1cc(OC)c2c(c1-c1c(CO)cc(OC)c3c1OCO3)OCO2 [bicyclol]",
    "cell viability / %": 97.6
  },
  {
    "compound": "C=CCc1ccc(O)c(-c2cc(CC=C)ccc2O)c1 [magnolol]",
    "cell viability / %": 102
  },
  {
    "compound": "COc1cc2c(=O)c(-c3ccc(O)cc3)coc2cc1O [glycitein]",
    "cell viability / %": 99.3
  },
  {
    "compound": "O=C(Nc1c[nH]nc1-c1nc2ccc(CN3CCOCC3)cc2[nH]1)NC1CC1 [AT-9283]",
    "cell viability / %": 97.7
  },
  {
    "compound": "NCCCCCC(O)(P(=O)(O)O)P(=O)(O)O [neridronic-acid]",
    "cell viability / %": 95.9
  },
  {
    "compound": "COC(=O)Nc1nc2cc(SC(C)C)ccc2[nH]1 [methiazole]",
    "cell viability / %": 97.6
  }
]

## Input Return cell viability measured with U2OS given this compound: "CC(C)OC(=O)C1=CN(C(=O)c2ccc(F)c(F)c2)CC(C)(C)c2c1[nH]c1ccccc21"
## Output 99.6

## Input Return cell viability measured with U2OS given this compound: CC(C)OC(=O)N1CCC(Oc2ncnc3c2cnn3-c2ccc(S(C)(=O)=O)cc2F)CC1 [APD668]
## Output 101

## Input Return cell viability measured with U2OS given this compound: CC1(C)C(/C=C/C=C/C=C/C=C2\N(CCCCS(=O)(=O)O)c3ccc4ccccc4c3C2(C)C)=[N+](CCCCS(=O)(=O)[O-])c2ccc3ccccc3c21 [indocyanine-green]
## Output 101

* * *

Test system: Calu-3
test_details: cell viability relative to DMSO; higher = less toxic
details: 72 h; 10 nM
readout_kind: cell viability (%)
// note: answer is a bare numeric in %

Take a look at these entries with their results.
[
  {
    "compound": "CC(C)c1cc(C(C)C)c(CC(=O)NS(=O)(=O)Oc2c(C(C)C)cccc2C(C)C)c(C(C)C)c1",
    "result_unit": "%",
    "reported": 104
  },
  {
    "compound": "CCN1CCN(c2ccc(Nc3cc(N(C)C(=O)Nc4c(Cl)c(OC)cc(OC)c4Cl)ncn3)cc2)CC1",
    "result_unit": "%",
    "reported": 102
  },
  {
    "compound": "COc1ccccc1N1CCN(CCn2c(=O)[nH]c3c([nH]c4ccccc43)c2=O)CC1",
    "result_unit": "%",
    "reported": 105
  },
  {
    "compound": "COc1cccc(-c2cc(F)ccc2[C@H]2Cc3nc(N)nc(C)c3C(=O)N2)n1",
    "result_unit": "%",
    "reported": 97.1
  },
  {
    "compound": "CN(C)CCCCSC(=N)N",
    "result_unit": "%",
    "reported": 89.5
  }
]

Let us move to another entry and its cell viability.
## Input Return cell viability measured with Calu-3 given this compound: O=C(O)CC1CC(c2ccccc2)=NO1 (stereo unspecified)
## Output 101

* * *

Test system: Caco-2
test_details: cell viability relative to DMSO; higher = less toxic
details: 72 h; 100 nM
As shown below, each of these molecules has a reported cell viability value.
// note: answer is a bare numeric in %

## Input Any idea what its cell viability is? The molecule is "Cn1nc(C(C)(C)C)cc1C(=O)N[C@@H](Cc1cccc(Cl)c1)C(=O)NCC#N"
## Output 86.7

## Input Any idea what its cell viability is? The molecule is "CCn1cc(-c2cccc(C(F)(F)F)c2)c2sc(C(=N)NC3CCS(=O)(=O)CC3)cc2c1=O"
## Output 97

## Input Any idea what its cell viability is? The molecule is "CCCc1c(OCCCOc2ccc(OCC(=O)O)cc2)ccc(C(C)=O)c1O"
## Output 88.8

## Input Any idea what its cell viability is? The molecule is "Cc1cn2c(N)c(Cl)cc(C(=O)NCC3CCN(CC(C)C)CC3)c2n1"
## Output 103

## Input Any idea what its cell viability is? The molecule is "C[C@]12CCC(=O)C=C1CC[C@@H]1[C@@H]2C(=O)C[C@]2(C)C(=O)CC[C@@H]12"
## Output 98

## Input Any idea what its cell viability is? The molecule is "C[C@@H]([C@@H](O)c1ccc(O)cc1)N1CCC(O)(c2ccccc2)CC1"
## Output 92.6

## Input Any idea what its cell viability is? The molecule is CCC/C=C1\OC(=O)C2=C1CCC=C2 [ligustilide]
## Output 113

## Input Any idea what its cell viability is? The molecule is O=C1[O][SbH]23[O]C(=O)C([O]2)C2[O][SbH]4([O]C(=O)C([O]4)C1[O]3)[O]C2=O [antimonyl]
## Output 99.2

## Input Any idea what its cell viability is? The molecule is "O=c1[nH]c2cc(C(F)(F)F)c(N3CCOCC3)cc2n(CP(=O)(O)O)c1=O"
## Output 98.5

## Input Any idea what its cell viability is? The molecule is Cc1c(C(N)=O)cc([N+](=O)[O-])cc1[N+](=O)[O-] [dinitolmide]
## Output 102

## Input Any idea what its cell viability is? The molecule is O=C(NCC1CCCCN1)c1cc(OCC(F)(F)F)ccc1OCC(F)(F)F (stereo not given) [flecainide]
## Output 94.5

## Input Any idea what its cell viability is? The molecule is "CCC1(c2c[nH]cn2)Cc2ccccc2C1"
## Output 104

## Input Any idea what its cell viability is? The molecule is "CCC[C@H](NC(=O)[C@@H]1[C@H]2CCC[C@H]2CN1C(=O)[C@@H](NC(=O)[C@@H](NC(=O)c1cnccn1)C1CCCCC1)C(C)(C)C)C(=O)C(=O)NC1CC1"
## Output 95.6

## Input Any idea what its cell viability is? The molecule is "O/N=C/c1cc[n+](COC[n+]2ccc(/C=N/O)cc2)cc1"
## Output 94.4

## Input Any idea what its cell viability is? The molecule is "COC(=O)N[C@@H](C)CNc1nccc(-c2cn(C(C)C)nc2-c2cc(Cl)cc(NS(C)(=O)=O)c2F)n1"
## Output 97

* * *

Test system: Calu-3
test_details: cell viability relative to DMSO; higher = less toxic
details: 72 h; 1 nM
As shown below, each of these molecules has a reported cell viability value.
// note: answer is a bare numeric in %

Take a look at these entries with their results.
[
  {
    "molecule": "Cn1nc(C(C)(C)C)cc1C(=O)N[C@@H](Cc1cccc(Cl)c1)C(=O)NCC#N [cathepsin-inhibitor-1]",
    "cell viability (%)": 103
  },
  {
    "molecule": "CC(C)(CO)CCCCCCC(C)(C)CO [gemcadiol]",
    "cell viability (%)": 97.4
  },
  {
    "molecule": "O=C1C[C@@H](c2ccc(O)cc2)Oc2cc(O)cc(O)c21 [naringenin]",
    "cell viability (%)": 93.2
  }
]

## Input Any idea what its cell viability is? The molecule is CC1(C)S[C@@H]2[C@H](N3C(=O)[C@@H](c4ccccc4)NC3(C)C)C(=O)N2[C@H]1C(=O)O [hetacillin]
## Output 99.4
